# system_name: Sialic acid-binding Ig-like lectin 9 (Homo sapiens) (UniProt Q9Y336)
# Sequence (Q9Y336 whole entry): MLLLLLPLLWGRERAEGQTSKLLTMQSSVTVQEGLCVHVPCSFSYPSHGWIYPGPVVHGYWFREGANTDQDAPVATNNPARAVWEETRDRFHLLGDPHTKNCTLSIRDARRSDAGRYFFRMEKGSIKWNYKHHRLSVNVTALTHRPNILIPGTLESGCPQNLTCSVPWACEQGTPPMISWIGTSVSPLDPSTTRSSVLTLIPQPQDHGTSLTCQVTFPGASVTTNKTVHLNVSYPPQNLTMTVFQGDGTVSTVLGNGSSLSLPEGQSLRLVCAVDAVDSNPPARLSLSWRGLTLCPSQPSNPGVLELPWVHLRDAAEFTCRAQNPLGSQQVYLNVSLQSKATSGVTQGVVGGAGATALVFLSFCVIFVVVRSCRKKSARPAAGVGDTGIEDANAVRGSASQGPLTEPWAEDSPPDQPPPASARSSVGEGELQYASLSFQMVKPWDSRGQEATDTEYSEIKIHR
# assay_explanation: Hs-Siglec9 ALPHAscreen SOP 20170721
# Parameters: scale not given: direction of the effect not stated beside the values
# measurement_parameters: 10 µM
value_kind: Percent Effect (%)
Numbers only, in %.

O=C(CCNc1ncccn1)NCCc1ccn(-c2ccccc2)n1
-7.45
CC(C)CN(C)c1ccc(C(=O)N2CCCC2c2cnn(C)c2)cn1 (stereo unspecified)
-6.28
CO[C@H]1CCN(Cc2cnn(C)c2)[C@@H]2CN(Cc3cccnc3)C[C@H]12
-3.02
Cc1cc(CN2CCN(C(=O)Nc3cccnc3)CC2)on1
8.98
CCCNC(=O)c1sc(Nc2ccc(Cl)cn2)nc1C
-4.2
O=C(Cc1ccsc1)N1C[C@@H]2CN(Cc3ccoc3)CCO[C@@H]2C1
8.18
Cc1cc(C[C@@H]2CCC[C@H]2NCc2ccccc2C(F)(F)F)on1
-0.325
CC(O)CN(CC(=O)NC(=O)NCC(F)(F)F)c1ccccc1 (stereo unspecified)
6.31
O=c1ccc(-c2cccs2)nn1CN1CCN(Cc2ccccc2)CC1
1.22
CN(C)C1CCN(C(=O)c2ccc(Cn3ccccc3=O)o2)CC1
12.9

Okay, here is my list. What is Percent Effect for each of these?
1. COCCN1CC[C@@H](O)[C@@H]1Cc1ccccc1
2. CC(NCc1ccc(F)cc1)c1ccc(OCC(=O)NC2CC2)cc1 (stereo unspecified)
3. CN(CC(=O)N1CCN(c2ncccn2)CC1)c1ccc(Cl)cn1

// result
0.614
-4.28
10.1

###

# system_name: AMP-activated protein kinase, AMPK (Homo sapiens) (UniProt P54646+O43741+P54619+Q9UGJ0+Q9Y478+Q13131+Q9UGI9)
# assay_explanation: AMP-dependent Kinase enzyme assay. An in vitro enzyme assay that detects ADP turnover that is directly proportional to AMPK activity. This uses naive AMPK that is activated during the assay with MK-8722
# Format: functional
# Set-up: scale not given: direction of the effect not stated beside the values
# measurement_parameters: 30 µM
value_kind: Percent Effect (%)
Answers are plain numbers, in %.

Okay, here is my list. What is Percent Effect for each of these?
1. CC(CN1CCCC1)C(=O)N1CCC(c2nccn2CC2CC2)CC1 (stereo not drawn)
2. COc1ccc(NC(=O)CNc2cccc3c2CCCC3)c(OC)c1
3. CN(C)C(=O)N1C[C@@H]2CC[C@H](C1)N(Cc1ccc3nsnc3c1)C2

// result
1: -3.47; 2: -0.0771; 3: -8.41

###

# system_name: Protein translocase subunit SecA (Escherichia coli (strain K12))
# assay_explanation: Assay to Identify E. coli SecA ATPase Inhibitors
# Type: functional
# Design: scale not given: direction of the effect not stated beside the values
# measurement_parameters: 30 µM
Entries with a potency or affinity are not part of this list.
value_kind: Percent Effect (%)
Answers are plain numbers, in %.

Reference set, count: 8
CC(C)N1CCC(Cc2cc(-c3cccc(C(=O)O)c3)ncn2)C1 (stereo unspecified)
1.6
O=C(COc1cccc2c1CCC2=O)NCCSc1ccccc1
-1.44
O=C1[C@@H]2CCN(Cc3ccoc3)C[C@@H]2OCCN1Cc1cccnc1
-4.73
CS(=O)(=O)NCc1nnc2n1CCN(CC1CC1)C2
-5.86
CC(C)c1nn(C)c(N(C)C)c1CNCc1ccccc1CN(C)C
-0.693
O=C(O)c1nnn(-c2ccc(F)c(F)c2)c1-c1ccncc1
-2.11
Cc1nc(C)n(CC2CCCN(CCCOc3ccccc3)C2)n1 (stereo unspecified)
-3.18
O=C(CN1CCCCC1Cn1cccn1)NC1CCN(C2CC2)CC1 (stereo unspecified)
-0.952

Okay, here is my list. What is Percent Effect for each of these?
1. COc1cccc(C)c1C(=O)N1C[C@@H](CN(C)C)[C@@H](CO)C1
2. CCCn1cc(C(=O)N(C)Cc2nc(-c3ccccn3)no2)c(C)n1
3. O=C(NCCc1nnc2n1CCC2)NCC1(c2cccc(F)c2)CC1
4. Cc1csc(N2CCN(CC(=O)Nc3nncs3)CC2C)n1 (stereo unspecified)
5. CNc1cc(C2CCCN2Cc2ccccc2C(=O)O)ccn1 (stereo unspecified)
6. Cc1nc(C)n(CC2CCCCN2CCS(C)(=O)=O)n1 (stereo unspecified)
7. CCc1nnc2n1CCN(C(=O)c1cc(Br)c[nH]1)C2

// result
[-3.79, -2.06, -7.67, -3.67, -4.24, -4.31, -5.48]

Okay, here is my list. What is Percent Effect for each of these?
1. CCOc1ccc(C#N)cc1NCC(=O)Nc1cc(C)no1
2. CN(C)C(=O)[C@H]1C[C@@H]2CCN(C3CCOCC3)C[C@H]2O1

// result
-6.06
-0.651

Okay, here is my list. What is Percent Effect for each of these?
1. Cc1cnn(CC2CCCN2C(=O)c2cn(-c3ccccc3)nc2C)c1 (stereo unspecified)
2. CC(Cc1ccco1)NC(=O)Nc1cnn(CC(N)=O)c1 (stereo unspecified)
3. Cc1cc(C)n(CC2CCCCN2CC(=O)Nc2cccnc2)n1 (stereo unspecified)
4. CSc1ncccc1C(=O)N1C[C@H]2CC[C@@H]1CN(c1cnccn1)C2

// result
1: -2.73; 2: 1.02; 3: -6.69; 4: -6.82
